- target system: hCA-I (Homo sapiens, UniProt P00915)
- Construct: gene CA1
- Sequence (P00915 2-261): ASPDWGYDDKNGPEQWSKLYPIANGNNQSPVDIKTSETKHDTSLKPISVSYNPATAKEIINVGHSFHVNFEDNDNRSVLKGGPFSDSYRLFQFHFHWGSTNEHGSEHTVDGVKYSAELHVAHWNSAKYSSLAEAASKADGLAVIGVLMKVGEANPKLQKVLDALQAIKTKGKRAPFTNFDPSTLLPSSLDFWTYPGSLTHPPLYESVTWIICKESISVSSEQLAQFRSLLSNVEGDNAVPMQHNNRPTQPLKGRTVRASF
- assay details: CO2 hydratase assay (Wilbur-Anderson)
- Assay type: biochemical
measure: Ki

Known results for molecules:
COc1ccc(SN2C(=O)c3ccccc3C2=O)cc1 [1c]
0.0379 µM
O=C1c2ccccc2C(=O)N1SCc1ccccc1 [1g]
0.0408 µM
O=C1c2ccccc2C(=O)N1Sc1ccc(Br)cc1 [1f]
0.023 µM

Attention now shifts to the item below.
-- ask Any idea what its Ki is? The molecule is O=C1c2ccccc2C(=O)N1Sc1ccccc1 [1a]
-- reply 0.0585 µM

---

Item-by-item account of Ki
- target system: hCA-I (Homo sapiens, UniProt P00915)
- Construct: gene CA1
- assay details: CO2 hydratase assay (Wilbur-Anderson)
- Format: biochemical
Output spec: scalar in µM, unitless text.

O=C1c2ccccc2C(=O)N1Sc1nc2ccccc2[nH]1 [1i]
0.0254
O=C1c2ccccc2C(=O)N1Sc1ccc(Cl)cc1 [1e]
0.0321
O=C1c2ccccc2C(=O)N1Sc1ccc([N+](=O)[O-])cc1 [1d]
0.119

-- ask Any idea what its Ki is? The compound is O=C1c2ccccc2C(=O)N1SC1CCCCC1 [1h]
-- reply 0.0503
